Listed below: normalized growth values for each entry.
assay-explanation: chemical genetic growth profiling, strain panel (AID 1159580);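 further: tested at 20 µM; growth read once vehicle control cultures reached saturation at 30 °C; 1 = growth at the plate median or of vehicle wells; lower values mean less growth of the strain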
measurement-context: S. cerevisiae deletion strains, growth OD, locus YGL227W, strain vid30, hits give low values
In all, about 5,500 compounds went through this assay and about 2,000 (36%) were called active. Not shown: some 18% with an inconclusive outcome. The list shows a part of the results.
endpoint-name: normalized growth

# compound, numeric-value
measured = [
    ("COc1cc(O)c(C(=O)c2ccccc2)cc1O", 1.01),
    ("CC1(C)S[C@@H]2[C@H](NC(=O)[C@H](NC(=O)N3CCNC3=O)c3ccccc3)C(=O)N2C1C(=O)O (stereo partly drawn)", 0.994),
    ("COc1ccc(C[C@H]2NC[C@H](O)[C@H]2OC(C)=O)cc1", 0.989),
    ("OCC(O)Cc1ccc2c(c1)OCO2 (stereo not drawn)", 0.985),
    ("Cc1cc(OC(=O)N2CCCCC2)c(C(C)C)cc1[N+](C)(C)C", 0.999),
    ("O=C1C[C@@H](c2ccc(O)cc2)Oc2cc(O)cc(O)c21", 0.948),
    ("COc1ccc(-c2cc(=O)c3c(O)cc(OC)c(OC)c3o2)c(OC)c1", 1.04),
    ("CCC(C(=O)O)c1ccccc1 (stereo not drawn)", 0.978),
    ("CN1C2CC3C[C@H]1C(O3)C2O (stereo partly drawn)", 1.01),
    ("O=[N+]([O-])O[C@H]1CO[C@H]2[C@@H]1OC[C@H]2O[N+](=O)[O-]", 0.986),
    ("COc1c2c(c(CC=C(C)C)c3oc(=O)c(-c4ccc(O)cc4)c(O)c13)OC(C)(C)C=C2", 0.765),
    ("COC1C(O)C(O)C(O)[C@@H](O)C1O (stereo partly drawn)", 0.973),
    ("CC(C)(N=NC(C)(C)C(=N)N)C(=N)N", 1.02),
    ("CN1CCCC(n2nc(Cc3ccc(Cl)cc3)c3ccccc3c2=O)CC1 (stereo not drawn)", 1),
    ("COc1ccc(C(=O)c2ccccc2)c(O)c1", 0.84),
    ("OCCN(CCO)c1nc(N2CCCCC2)c2nc(N(CCO)CCO)nc(N3CCCCC3)c2n1", 0.989),
    ("O=C(Cc1ccccc1)NO", 0.961),
    ("OCc1ccccc1O[C@@H]1O[C@H](CO)[C@@H](O)[C@H](O)[C@H]1O", 0.965),
    ("C[C@@H]1O[C@@H](O[C@H]2[C@@H](Oc3cc(O)c4c(c3)O[C@H](c3ccc(O)cc3)CC4=O)O[C@H](CO)[C@@H](O)[C@@H]2O)[C@H](O)[C@H](O)[C@H]1O", 0.975),
    ("C=CCc1ccc2c(c1)OCO2", 1.01),
    ("COc1ccc(C(=O)c2ccccc2O)c(O)c1", 0.879),
    ("COc1ccc([C@@H]2CC(=O)c3c(O)cc(O)cc3O2)cc1O", 0.988),
    ("CCOC(=O)c1ncn2c1CN(C)C(=O)c1cc(F)ccc1-2", 1.02),
]

---

assay-explanation: chemical genetic growth profiling, strain panel (AID 1159580);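 further: tested at 20 µM; growth read once vehicle control cultures reached saturation at 30 °C; 1 = growth at the plate median or of vehicle wells; lower values mean less growth of the strain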
measurement-context: S. cerevisiae deletion strains, growth OD, locus YDR162C, strain NBP2
About 2,000 (36%) of roughly 5,500 compounds were called active. Another 18% or so got no clear call; they are omitted. Cut-off read from the data, not from the text of the source: active = normalized growth mostly below about 0.91 (no sharp cut-off); inconclusive = no clear call, values can overlap the other calls; inactive = mostly above about 0.92. Some of the results follow.
Outcome codes: active, inactive

# compound, label-value
rows = [
    ("C=CC1=C(C(=O)O)N2C(=O)[C@@H](NC(=O)/C(=N/O)c3csc(N)n3)[C@H]2SC1", "inactive"),
    ("C[CH2][Hg][S]c1ccccc1C(=O)O", "active"),
    ("CCC(C(N)=O)c1ccccc1 (stereo unspecified)", "inactive"),
    ("CC1(C)C2CC[C@]3(C)C(C(=O)C=C4[C@@H]5C[C@@](C)(C(=O)O)CC[C@]5(C)CC[C@]43C)[C@@]2(C)CC[C@@H]1O (stereo partly specified)", "inactive"),
    ("O=c1ccc2cc(O)c(O)cc2o1", "inactive"),
    ("CC1(C)C2CC[C@]3(C)C(C(=O)C=C4[C@H]5C[C@@](C)(C(=O)O)CC[C@]5(C)CC[C@]43C)[C@@]2(C)CC[C@@H]1O (stereo partly specified)", "inactive"),
    ("C=C(C)/C=C1/C=CC(=O)C(C)=C1", "active"),
    ("CCc1ccc(CCOc2ccc(CC3SC(=O)NC3=O)cc2)nc1 (stereo unspecified)", "inactive"),
    ("O=C(O)C1CC([C@@H]2CCCCN2)CN2CCCCC12 (stereo partly specified)", "inactive"),
    ("CNC1(C)C2CCC(C2)C1(C)C (stereo unspecified)", "inactive"),
    ("C1CCc2nnnn2CC1", "inactive"),
]

---

Reported normalized growth values for the following compounds.
assay-explanation: chemical genetic growth profiling, strain panel (AID 1159580);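 further: tested at 20 µM; growth read once vehicle control cultures reached saturation at 30 °C; 1 = growth at the plate median or of vehicle wells; lower values mean less growth of the strain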
measurement-context: S. cerevisiae deletion strains, growth OD, locus YMR129W, hits give low values
Among all 5,500 compounds or so, about 2,000 (36%) were called active. Roughly 18% stayed inconclusive and do not appear here. This is one part of the list.
endpoint-name: normalized growth

# compound, result
measured = [
    ("CCOC(=O)c1ncn2c1CN(C)C(=O)c1cc(F)ccc1-2", "1.01 (inactive)"),
    ("CC(=O)O[C@H]1C(=O)[C@@]2(C)C([C@H](OC(=O)c3ccccc3)[C@]3(O)C[C@H](O)C(C)=C1C3(C)C)[C@]1(OC(C)=O)CO[C@@H]1C[C@@H]2O (stereo partly drawn)", "0.988 (inactive)"),
    ("N=c1nc(N2CCCCC2)cc(N)n1O", "0.99 (inactive)"),
    ("C1CCc2nnnn2CC1", "1.01 (inactive)"),
    ("O=C(O)COc1cc(Cl)c(Cl)cc1Cl", "1.01 (inactive)"),
    ("CC(C)N(C(=O)CCl)c1ccccc1", "1.01 (inactive)"),
    ("COC1C(O)C(O)C(O)[C@@H](O)C1O (stereo partly drawn)", "0.976 (inactive)"),
    ("CC(=O)OCC(CCn1cnc2cnc(N)nc21)COC(C)=O", "0.986 (inactive)"),
    ("COc1ccc(C(=O)c2ccccc2)c(O)c1", "0.856 (active)"),
    ("C=C1CC[C@H](O)C/C1=C/C=C1\\CCC[C@]2(C)C([C@H](C)/C=C/[C@H](C)C(C)C)CC[C@@H]12 (stereo partly drawn)", "1.02 (inactive)"),
    ("CC[C@H]1OC(=O)C[C@@H](O)[C@H](C)[C@@H](O[C@@H]2O[C@H](C)[C@@H](O[C@H]3C[C@@](C)(O)[C@@H](O)[C@H](C)O3)[C@H](N(C)C)[C@H]2O)[C@@H](CC=O)C[C@@H](C)C(=O)/C=C/C(C)=C/[C@@H]1CO[C@@H]1O[C@H](C)[C@@H](O)[C@@H](OC)[C@H]1OC", "0.997 (inactive)"),
    ("C=CCc1ccc2c(c1)OCO2", "1.03 (inactive)"),
    ("COc1ccc(C(=O)c2ccccc2O)c(O)c1", "0.888 (active)"),
    ("CN1C2CC3C[C@H]1C(O3)C2O (stereo partly drawn)", "0.986 (inactive)"),
    ("O=C(Cc1ccccc1)NO", "0.973 (inactive)"),
    ("CCC(C(=O)O)c1ccccc1 (stereo not drawn)", "0.992 (inactive)"),
    ("C/C=C(/C(=C/C)c1ccc(O)cc1)c1ccc(O)cc1", "0.986 (inactive)"),
    ("CCSC(=N)N", "1.02 (inactive)"),
    ("Cc1cccc(Nc2cc(Cl)nc(SCC(=O)O)n2)c1C", "0.973 (inactive)"),
    ("OCC(O)Cc1ccc2c(c1)OCO2 (stereo not drawn)", "0.994 (inactive)"),
    ("COc1cc(O)c(C(=O)c2ccccc2)cc1O", "1 (inactive)"),
    ("OCc1ccccc1O[C@@H]1O[C@H](CO)[C@@H](O)[C@H](O)[C@H]1O", "1 (inactive)"),
    ("CCCCOc1ccc(CC(=O)NO)cc1", "0.996 (inactive)"),
]

---

assay-explanation: chemical genetic growth profiling, strain panel (AID 1159580);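 further: tested at 20 µM; growth read once vehicle control cultures reached saturation at 30 °C; 1 = growth at the plate median or of vehicle wells; lower values mean less growth of the strain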
measurement-context: S. cerevisiae deletion strains, growth OD, locus YPR163C, strain tif3
The campaign covered roughly 5,500 compounds. About 2,000 (36%) were called active. Roughly 18% stayed inconclusive and do not appear here. No stated cut-off is given here; in the data, active means normalized growth mostly below about 0.91 (no sharp cut-off); inconclusive means no clear call, values can overlap the other calls; inactive means mostly above about 0.92. This is one part of the list.
Possible outcomes: yes (active), no (inactive)

# compound, label-value
rows = [
    ("O=C(/C=C/C=C/c1ccc2c(c1)OCO2)N1CCCCC1", "yes"),
    ("O=C(O)C1CC([C@@H]2CCCCN2)CN2CCCCC12 (some centres not stated)", "no"),
    ("COc1ccc(-c2coc3c(OC)c(OC)cc(O)c3c2=O)cc1", "yes"),
    ("COc1ccc(C(=O)c2ccccc2)c(O)c1", "yes"),
    ("CC(=O)OCC(CCn1cnc2cnc(N)nc21)COC(C)=O", "no"),
    ("COc1ccc(-c2coc3c(OC)c(OC)ccc3c2=O)cc1", "no"),
    ("CC(C)=CCc1c(O)cc(C)oc1=O", "no"),
    ("COc1c(CC=C(C)C)c2c(c3oc(=O)c(-c4ccc(O)cc4)c(O)c13)C=CC(C)(C)O2", "yes"),
    ("COc1c2c(c(CC=C(C)C)c3oc(=O)c(-c4ccc(O)cc4)c(O)c13)OC(C)(C)C=C2", "yes"),
    ("CCC1(c2ccc(N)cc2)CCC(=O)NC1=O (configuration not stated)", "no"),
    ("CCC1(c2ccccc2)C(=O)NCNC1=O", "no"),
    ("COc1ccc(C(=O)c2ccccc2O)c(O)c1", "no"),
]
